# method_description: Water solubility of the peptides
# Assay type: physicochemical
Residues, ends and D or L forms follow the SMILES beside them.
property_name: solubility (µg/mL)

Known solubility results, listed for orientation:
solubility in this record for CC[C@H](C)[C@H](NC(=O)[C@@H](N)CCSC)C(=O)N[C@@H](Cc1c[nH]c2ccccc12)C(=O)O [MIW] (H-Met-Ile-Trp-OH) : 1000

Form field solubility, entry CC[C@H](C)[C@H](NC(=O)[C@@H](NC(=O)[C@@H](N)CCSC)[C@@H](C)CC)C(=O)N[C@@H](CC(C)C)C(=O)O [MIIL] (H-MIIL-OH) : 200

Value of measured solubility for the entry CC[C@H](C)[C@H](NC(=O)[C@@H](N)CCSC)C(=O)N[C@@H](Cc1ccccc1)C(=O)N[C@@H](CC(C)C)C(=O)O [MIFL] (H-MIFL-OH) : 200

Recorded solubility (compound CC[C@H](C)[C@H](NC(=O)[C@@H](N)CCSC)C(=O)N[C@@H](Cc1c[nH]c2ccccc12)C(=O)N[C@@H](CC(C)C)C(=O)O [MIWL] (H-MIWL-OH) ): 200

1: CC[C@H](C)[C@H](NC(=O)[C@@H](N)CCSC)C(=O)N[C@@H](CC(C)C)C(=O)N[C@@H](CC(C)C)C(=O)O [MILL] (H-MILL-OH)
2: CC[C@H](C)[C@H](NC(=O)[C@@H](N)CCSC)C(=O)N[C@@H](Cc1ccccc1)C(=O)O [MIF] (H-Met-Ile-Phe-OH)
3: CC[C@H](C)[C@H](NC(=O)[C@@H](N)CCSC)C(=O)N[C@@H](Cc1ccc(O)cc1)C(=O)N[C@@H](CC(C)C)C(=O)O [MIYL] (H-MIYL-OH)
Exercise: Put the compounds in ascending order of solubility. # the answer lists labels in the order requested
Solution: 1, 3, 2
(1: 200 µg/mL, 3: 300 µg/mL, 2: 30000 µg/mL)
